# protocol: binders from COS7 lysate, DM2A8 probe, primary screen, torsin A project, cell lysate, small-molecule microarray, fluorescence 635/667 (AID 1065)
# particulars: higher = more signal, COS7 lysate expressing mutant human TOR1A
So I've got a bunch of molecules here, and I need their composite z-score values.

molecule | composite z-score
COc1ccc(NN2C(C(O)c3ccccn3)C=CC3C(=O)N(C4CCCCC4)C(=O)C32)cc1 (centres undefined) | -0.287
CN(C)CCCNC(=O)[C@@]1(C)c2ccccc2C(=O)N(Cc2cc(C(F)(F)F)cc(C(F)(F)F)c2)[C@H]1c1ccc(CO)cc1 | -0.401
COC(=O)C1(Cc2ccccc2)C=C2C(=C(C(C)C)C(=O)C2C)CN1 (centres undefined) | 1.26

Exercise: Look up composite z-score: COCCCNC(=O)[C@]1(CCC(=O)OC(C)(C)C)N=C(c2ccc(OCCCO)cc2)O[C@@H]1c1ccccc1
Key: 0.389
